system-under-test: T1, human SLITRK6 on cells (human, UniProt Q9H5Y7 27-841)
T1 construct: whole, on cells
measurement-description: flow cytometry on RT4 cells, PE-conjugated anti-human Fc
Each item that follows carries a reported EC50 (read off the curve).

[[record]]
binder = "hu1H2-03-LD038 (antibody, V domains shown, drug-linker LD038 conjugated to the antibody; positions not given, also called hu1H2-03-LALA-LD038; hu1H2-03-LD038 (8)) VH: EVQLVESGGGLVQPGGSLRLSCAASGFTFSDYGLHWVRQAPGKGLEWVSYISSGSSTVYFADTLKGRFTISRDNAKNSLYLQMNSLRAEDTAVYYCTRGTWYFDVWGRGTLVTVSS VL: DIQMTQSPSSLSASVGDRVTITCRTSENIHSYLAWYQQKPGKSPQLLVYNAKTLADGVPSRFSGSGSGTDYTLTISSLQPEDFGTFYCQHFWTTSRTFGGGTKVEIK"
reported_metric = "EC50 (read off the curve)"
recorded_value = "~0.3 nM"

[[record]]
binder = "Sirtratumab (antibody, V domains shown, Prior-art benchmark antibody; also called Sirtratuzumab) VH: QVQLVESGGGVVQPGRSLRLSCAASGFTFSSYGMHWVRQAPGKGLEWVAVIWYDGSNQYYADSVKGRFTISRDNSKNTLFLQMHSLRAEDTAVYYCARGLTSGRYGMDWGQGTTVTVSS VL: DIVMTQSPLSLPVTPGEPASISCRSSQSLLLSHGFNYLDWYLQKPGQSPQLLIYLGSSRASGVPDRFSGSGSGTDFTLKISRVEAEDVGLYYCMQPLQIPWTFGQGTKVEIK"
reported_metric = "EC50 (read off the curve)"
recorded_value = "~0.2 nM"

[[record]]
binder = "AGS15E (antibody, V domains shown, drug conjugate; drug-linker and positions not given, also called ADC of Sirtratumab) VH: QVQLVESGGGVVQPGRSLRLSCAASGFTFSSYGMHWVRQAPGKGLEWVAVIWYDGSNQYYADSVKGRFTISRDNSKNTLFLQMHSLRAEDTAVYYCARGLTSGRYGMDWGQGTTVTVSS VL: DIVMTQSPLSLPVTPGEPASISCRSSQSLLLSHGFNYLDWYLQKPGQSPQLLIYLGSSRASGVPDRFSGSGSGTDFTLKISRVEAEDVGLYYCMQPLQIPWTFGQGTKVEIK"
reported_metric = "EC50 (read off the curve)"
recorded_value = "~0.3 nM"


Consider the binder hu1H2-03 with a LALA mutation (hu1H2-03-LALA) (antibody, V domains shown) VH: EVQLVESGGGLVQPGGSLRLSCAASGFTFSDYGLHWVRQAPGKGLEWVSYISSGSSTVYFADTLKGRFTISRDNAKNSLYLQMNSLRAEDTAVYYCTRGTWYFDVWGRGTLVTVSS VL: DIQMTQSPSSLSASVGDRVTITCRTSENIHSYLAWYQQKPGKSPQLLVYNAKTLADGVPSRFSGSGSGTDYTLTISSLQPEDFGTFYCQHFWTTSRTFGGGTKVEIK and give its measured EC50 (read off the curve). ~0.2 nM
